# system-name: TYK2 (Homo sapiens (Human), UniProt P29597)
# Sequence (P29597 whole entry): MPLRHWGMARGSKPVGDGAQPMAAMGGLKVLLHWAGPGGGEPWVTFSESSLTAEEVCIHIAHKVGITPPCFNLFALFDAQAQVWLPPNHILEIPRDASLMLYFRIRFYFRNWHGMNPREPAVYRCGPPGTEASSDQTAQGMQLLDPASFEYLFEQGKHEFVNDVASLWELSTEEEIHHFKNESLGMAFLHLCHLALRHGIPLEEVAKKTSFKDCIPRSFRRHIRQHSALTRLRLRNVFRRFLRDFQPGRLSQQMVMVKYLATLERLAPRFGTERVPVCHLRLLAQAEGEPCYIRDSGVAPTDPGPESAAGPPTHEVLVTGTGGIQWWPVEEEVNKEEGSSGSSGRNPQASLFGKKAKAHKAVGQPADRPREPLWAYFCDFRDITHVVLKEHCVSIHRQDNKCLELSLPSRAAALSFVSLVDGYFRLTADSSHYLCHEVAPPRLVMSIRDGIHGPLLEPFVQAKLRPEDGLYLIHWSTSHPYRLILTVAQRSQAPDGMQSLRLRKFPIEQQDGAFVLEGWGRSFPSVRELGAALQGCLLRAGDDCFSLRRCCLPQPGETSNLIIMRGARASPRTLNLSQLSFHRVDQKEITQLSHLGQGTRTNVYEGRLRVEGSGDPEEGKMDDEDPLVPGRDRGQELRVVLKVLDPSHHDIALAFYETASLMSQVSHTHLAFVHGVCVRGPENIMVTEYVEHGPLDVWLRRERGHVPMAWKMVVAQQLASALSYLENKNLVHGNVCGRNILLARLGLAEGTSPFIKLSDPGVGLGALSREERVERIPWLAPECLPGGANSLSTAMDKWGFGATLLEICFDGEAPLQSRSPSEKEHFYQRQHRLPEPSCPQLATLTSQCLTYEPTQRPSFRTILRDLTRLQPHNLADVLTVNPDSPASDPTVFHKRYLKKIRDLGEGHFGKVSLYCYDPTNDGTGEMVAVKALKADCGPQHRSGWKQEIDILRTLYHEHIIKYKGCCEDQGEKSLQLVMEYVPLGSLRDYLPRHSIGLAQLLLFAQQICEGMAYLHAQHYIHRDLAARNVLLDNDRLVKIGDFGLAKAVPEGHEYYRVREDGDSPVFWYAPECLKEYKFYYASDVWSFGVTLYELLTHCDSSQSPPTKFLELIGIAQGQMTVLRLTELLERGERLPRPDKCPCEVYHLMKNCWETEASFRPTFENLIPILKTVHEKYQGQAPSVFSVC
# assay-name: Biochemical potency on Tyk2, TR-FRET LANCE Ultra kinase assay (compounds 1-92)
# stated-conditions: ATP at Km, read-out: Tyk2 inhibitory activity (pIC50 class) (converted)
Below is a list of entries, each paired with its recorded IC50 value.

Check TYK2 (Homo sapiens (Human), UniProt P29597) data and give IC50 for COc1cc(CO)ccc1-n1nc(C)c2cnc(-c3cnn4cccnc34)cc21 .
> 50.1 nM

Name the recorded IC50 of COc1cc(NS(C)(=O)=O)ccc1-n1nc(C)c2cnc(Nc3ncc[nH]c3=O)cc21 , assay system TYK2 (Homo sapiens (Human), UniProt P29597).
≤ 5.01 nM

Send back TYK2 (Homo sapiens (Human), UniProt P29597) IC50 of COc1cc(NS(=O)(=O)CC(N)=O)ccc1-n1nc(C)c2cnc(-c3cnn4cccnc34)cc21 only.
5.01 to 50.1 nM

Report the value of IC50 obtained on TYK2 (Homo sapiens (Human), UniProt P29597) for COc1cc(CNS(C)(=O)=O)ccc1-n1nc(CC#N)c2cnc(-c3cnn4cccnc34)cc21 .
5.01 to 50.1 nM

====

# system-name: UniProt:P23458
# assay-name: Biochemical potency on JAK1, TR-FRET LANCE Ultra kinase assay (compounds 1-92)
# stated-conditions: ATP at Km, read-out: JAK1 inhibitory activity (pIC50 class) (converted)
Parameter IC50: see the listing below.

Using UniProt:P23458 as the test system, report measured IC50 of COc1cc(C#N)ccc1-n1nc(C)c2cnc(-c3cnn4cccnc34)cc21 .
5.01 to 50.1 nM

====

# system-name: JAK 3 (Homo sapiens (Human))
# Sequence (P52333 whole entry): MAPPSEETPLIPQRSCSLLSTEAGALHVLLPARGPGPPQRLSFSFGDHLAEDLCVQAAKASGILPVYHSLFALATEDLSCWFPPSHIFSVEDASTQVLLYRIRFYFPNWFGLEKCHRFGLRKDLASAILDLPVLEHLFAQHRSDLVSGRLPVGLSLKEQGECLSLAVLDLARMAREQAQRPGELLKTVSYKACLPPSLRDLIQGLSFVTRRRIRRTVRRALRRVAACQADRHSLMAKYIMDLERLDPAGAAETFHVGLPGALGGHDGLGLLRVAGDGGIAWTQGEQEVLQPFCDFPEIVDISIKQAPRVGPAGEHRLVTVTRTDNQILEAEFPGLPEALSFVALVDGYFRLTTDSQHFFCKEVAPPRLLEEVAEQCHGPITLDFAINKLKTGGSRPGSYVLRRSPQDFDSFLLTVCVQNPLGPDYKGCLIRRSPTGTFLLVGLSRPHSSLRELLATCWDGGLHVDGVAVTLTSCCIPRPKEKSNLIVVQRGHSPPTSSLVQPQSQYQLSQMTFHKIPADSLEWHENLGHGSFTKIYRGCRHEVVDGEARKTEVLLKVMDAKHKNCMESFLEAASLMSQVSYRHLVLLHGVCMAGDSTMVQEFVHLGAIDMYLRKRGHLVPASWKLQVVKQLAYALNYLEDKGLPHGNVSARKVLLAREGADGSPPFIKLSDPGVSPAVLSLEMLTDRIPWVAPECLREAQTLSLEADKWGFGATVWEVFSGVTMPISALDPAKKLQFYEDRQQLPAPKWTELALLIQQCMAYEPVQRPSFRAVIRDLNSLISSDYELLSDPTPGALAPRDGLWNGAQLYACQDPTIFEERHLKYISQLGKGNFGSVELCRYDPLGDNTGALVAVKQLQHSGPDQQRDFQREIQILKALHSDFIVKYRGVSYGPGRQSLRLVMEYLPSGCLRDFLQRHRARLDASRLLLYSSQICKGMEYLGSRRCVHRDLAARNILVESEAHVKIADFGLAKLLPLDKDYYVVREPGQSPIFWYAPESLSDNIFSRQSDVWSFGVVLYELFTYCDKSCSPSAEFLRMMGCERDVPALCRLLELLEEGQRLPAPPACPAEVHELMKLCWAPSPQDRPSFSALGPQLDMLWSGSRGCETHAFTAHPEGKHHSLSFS
# assay-name: Biochemical potency on JAK3, TR-FRET LANCE Ultra kinase assay (compounds 1-92)
# stated-conditions: ATP at Km, read-out: JAK3 inhibitory activity (pIC50 class) (converted)
observed-property: IC50

Consider the following illustrative entries.
INSERT INTO results (compound, val) VALUES
  ('CNc1nn(-c2cc(Cl)c(CNS(C)(=O)=O)cc2OC)c2cc(-c3cnn4cccnc34)ncc12 [Example 57]', '≤ 5.01 nM'),
  ('COc1cc(NS(C)(=O)=O)ccc1-n1nc(NCCN(C)C)c2cnc(-c3cnc4cccnn34)cc21 [Example 77]', '≤ 5.01 nM'),
  ('COc1cc(N)ccc1-n1nc(C)c2cnc(-c3cnn4cccnc34)cc21 [Example 17]', '5.01 to 50.1 nM'),
  ('O=S(=O)(Nc1ccc(-n2nc(NCCN3CCOCC3)c3cnc(-c4cnn5cccnc45)cc32)c(OC(F)F)c1)C1CC1 [Example 25]', '≤ 5.01 nM');

Give the reported IC50 for this compound. COc1cc(NS(C)(=O)=O)ccc1-n1nc(NC(=O)C2CCN(C)C2)c2cnc(-c3cnn4cccnc34)cc21 (racemic) [Example 42]
5.01 to 50.1 nM

====

# system-name: JAK 1 (Homo sapiens (Human), UniProt P23458)
# Sequence (P23458 whole entry): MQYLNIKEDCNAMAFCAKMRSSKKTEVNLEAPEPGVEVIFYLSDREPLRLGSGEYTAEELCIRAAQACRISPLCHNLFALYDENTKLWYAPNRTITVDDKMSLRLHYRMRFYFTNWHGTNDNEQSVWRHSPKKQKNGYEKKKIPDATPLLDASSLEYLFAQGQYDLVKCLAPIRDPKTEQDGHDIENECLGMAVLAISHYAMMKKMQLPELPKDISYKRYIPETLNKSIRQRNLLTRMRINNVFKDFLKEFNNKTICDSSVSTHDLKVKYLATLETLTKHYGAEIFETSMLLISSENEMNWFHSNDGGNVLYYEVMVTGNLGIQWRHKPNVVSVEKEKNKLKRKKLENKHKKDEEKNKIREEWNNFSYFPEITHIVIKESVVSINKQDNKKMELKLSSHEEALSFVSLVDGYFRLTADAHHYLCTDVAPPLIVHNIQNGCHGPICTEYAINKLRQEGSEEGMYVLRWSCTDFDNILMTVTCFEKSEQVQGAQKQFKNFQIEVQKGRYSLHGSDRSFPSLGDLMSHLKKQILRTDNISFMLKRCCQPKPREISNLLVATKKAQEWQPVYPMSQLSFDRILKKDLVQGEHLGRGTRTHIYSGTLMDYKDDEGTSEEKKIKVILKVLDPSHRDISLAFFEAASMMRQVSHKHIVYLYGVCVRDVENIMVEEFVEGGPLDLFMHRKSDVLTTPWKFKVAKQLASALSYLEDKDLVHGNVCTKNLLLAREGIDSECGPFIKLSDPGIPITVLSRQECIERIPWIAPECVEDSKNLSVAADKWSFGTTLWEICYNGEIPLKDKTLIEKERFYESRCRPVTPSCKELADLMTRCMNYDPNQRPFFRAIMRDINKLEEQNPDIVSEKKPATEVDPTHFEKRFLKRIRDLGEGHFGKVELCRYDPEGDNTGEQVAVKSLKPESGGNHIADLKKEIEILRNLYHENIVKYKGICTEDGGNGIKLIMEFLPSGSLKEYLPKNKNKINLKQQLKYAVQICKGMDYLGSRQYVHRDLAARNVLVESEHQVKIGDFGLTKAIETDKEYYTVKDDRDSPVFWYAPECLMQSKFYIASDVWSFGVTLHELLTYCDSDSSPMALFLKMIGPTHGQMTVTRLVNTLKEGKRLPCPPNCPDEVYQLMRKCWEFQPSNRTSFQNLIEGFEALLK
# assay-name: Biochemical potency on JAK1, TR-FRET LANCE Ultra kinase assay (compounds 1-92)
# stated-conditions: ATP at Km, read-out: JAK1 inhibitory activity (pIC50 class) (converted)
Catalogue of molecules with associated IC50

INSERT INTO measurements (molecule, system_name, val) VALUES
  ('CCCS(=O)(=O)Nc1ccc(-n2nc(NC)c3cnc(Nc4ncc[nH]c4=O)cc32)c(OC)c1 [Example 91]', 'JAK 1 (Homo sapiens (Human), UniProt P23458)', '≤ 5.01 nM'),
  ('CCCS(=O)(=O)Nc1ccc(-n2nc(NC(=O)CCN3CCN(C)CC3)c3cnc(-c4cnn5cccnc45)cc32)c(OC)c1 [Example 82]', 'JAK 1 (Homo sapiens (Human), UniProt P23458)', '5.01 to 50.1 nM'),
  ('COc1cc(NS(=O)(=O)C2CC2)ccc1-n1nc(NCCN2CCCCC2)c2cnc(-c3cnn4cccnc34)cc21 [Example 36]', 'JAK 1 (Homo sapiens (Human), UniProt P23458)', '5.01 to 50.1 nM');

Answer with the recorded IC50 of CNC(=O)NCc1ccc(-n2nc(C)c3cnc(-c4cnn5cccnc45)cc32)c(OC)c1 [Example 71] only.
5.01 to 50.1 nM

State its IC50: COc1cc(NS(C)(=O)=O)ccc1-n1nc(C)c2cnc(Nc3ncc[nH]c3=O)cc21 [Example 85]
≤ 5.01 nM

Give IC50 for the following molecule: CCCS(=O)(=O)Nc1ccc(-n2nc(C(=O)NCCCN3CCOCC3)c3cnc(-c4cnn5cccnc45)cc32)c(OC)c1 [Example 47]
5.01 to 50.1 nM

For the molecule COc1cc(NS(C)(=O)=O)ccc1-n1nc(NCCN2CCCCC2)c2cnc(-c3cnn4cccnc34)cc21 [Example 37] , give its reported IC50.
≤ 5.01 nM

Provide one value: measured IC50 of COc1cc(NS(C)(=O)=O)ccc1-n1nc(NCCO)c2cnc(-c3cnn4cccnc34)cc21 [Example 26]
≤ 5.01 nM

Give IC50 for COc1cc(NS(=O)(=O)C2COC2)ccc1-n1nc(C)c2cnc(-c3cnn4cccnc34)cc21 [Example 8]
≤ 5.01 nM

====

# system-name: JAK 1 (Homo sapiens (Human))
# assay-name: Biochemical potency on JAK1, TR-FRET LANCE Ultra kinase assay (compounds 1-92)
# stated-conditions: ATP at Km, read-out: JAK1 inhibitory activity (pIC50 class) (converted)
observed-property: IC50

Below, each entry is followed by its recorded IC50 result.
INSERT INTO results (compound, val) VALUES
  ('COc1cc(NS(C)(=O)=O)ccc1-n1nc(NCCN2C3CCC2COC3)c2cnc(Nc3ncc[nH]c3=O)cc21', '≤ 5.01 nM'),
  ('COc1cc(NS(C)(=O)=O)ccc1-n1nc(NC(=O)C2CCN(C)C2)c2cnc(-c3cnn4cccnc34)cc21 (racemic)', '5.01 to 50.1 nM');

Given the compound Cc1nn(-c2ccc(NS(C)(=O)=O)cc2OC(F)F)c2cc(-c3cnn4cccnc34)ncc12 , write its reported IC50.
≤ 5.01 nM

====

# system-name: JAK 2 (Homo sapiens (Human))
# assay-name: Biochemical potency on JAK2, TR-FRET LANCE Ultra kinase assay (compounds 1-92)
# stated-conditions: ATP at Km, read-out: JAK2 inhibitory activity (pIC50 class) (converted)
observed-property: IC50

INSERT INTO assay_data (molecule, val) VALUES
  ('COc1cc(NS(=O)(=O)C2CC2)ccc1-n1nc(NCCCN2CCOCC2)c2cnc(-c3cnn4cccnc34)cc21 [Example 33]', '5.01 to 50.1 nM');

Write down the reported IC50 (system: JAK 2 (Homo sapiens (Human))) of CCCS(=O)(=O)Nc1ccc(-n2nc(C)c3cnc(-c4cnn5cccnc45)cc32)c(OC)c1 [Example 4]
≤ 5.01 nM

Lab note: record IC50 of CCCS(=O)(=O)Nc1ccc(-n2nc(NC(=O)CCN3CCN(C)CC3)c3cnc(-c4cnn5cccnc45)cc32)c(OC)c1 [Example 82] tested on JAK 2 (Homo sapiens (Human)).
5.01 to 50.1 nM

State, for JAK 2 (Homo sapiens (Human)), measured IC50 of the molecule listed here: COCCN1CCC(CNc2nn(-c3ccc(NS(C)(=O)=O)cc3OC)c3cc(-c4cnn5cccnc45)ncc23)CC1 [Example 27]
≤ 5.01 nM

Report IC50 from JAK 2 (Homo sapiens (Human)) testing of COC(=O)NCc1ccc(-n2nc(C)c3cnc(-c4cnn5cccnc45)cc32)c(OC)c1 [Example 69]
5.01 to 50.1 nM

Fill in IC50 for COc1cc(CO)ccc1-n1nc(C)c2cnc(-c3cnn4cccnc34)cc21 [Example 66] tested with JAK 2 (Homo sapiens (Human)).
5.01 to 50.1 nM

====

IC50: recorded values
# system-name: JAK 2 (Homo sapiens (Human), UniProt O60674)
# Sequence (O60674 whole entry): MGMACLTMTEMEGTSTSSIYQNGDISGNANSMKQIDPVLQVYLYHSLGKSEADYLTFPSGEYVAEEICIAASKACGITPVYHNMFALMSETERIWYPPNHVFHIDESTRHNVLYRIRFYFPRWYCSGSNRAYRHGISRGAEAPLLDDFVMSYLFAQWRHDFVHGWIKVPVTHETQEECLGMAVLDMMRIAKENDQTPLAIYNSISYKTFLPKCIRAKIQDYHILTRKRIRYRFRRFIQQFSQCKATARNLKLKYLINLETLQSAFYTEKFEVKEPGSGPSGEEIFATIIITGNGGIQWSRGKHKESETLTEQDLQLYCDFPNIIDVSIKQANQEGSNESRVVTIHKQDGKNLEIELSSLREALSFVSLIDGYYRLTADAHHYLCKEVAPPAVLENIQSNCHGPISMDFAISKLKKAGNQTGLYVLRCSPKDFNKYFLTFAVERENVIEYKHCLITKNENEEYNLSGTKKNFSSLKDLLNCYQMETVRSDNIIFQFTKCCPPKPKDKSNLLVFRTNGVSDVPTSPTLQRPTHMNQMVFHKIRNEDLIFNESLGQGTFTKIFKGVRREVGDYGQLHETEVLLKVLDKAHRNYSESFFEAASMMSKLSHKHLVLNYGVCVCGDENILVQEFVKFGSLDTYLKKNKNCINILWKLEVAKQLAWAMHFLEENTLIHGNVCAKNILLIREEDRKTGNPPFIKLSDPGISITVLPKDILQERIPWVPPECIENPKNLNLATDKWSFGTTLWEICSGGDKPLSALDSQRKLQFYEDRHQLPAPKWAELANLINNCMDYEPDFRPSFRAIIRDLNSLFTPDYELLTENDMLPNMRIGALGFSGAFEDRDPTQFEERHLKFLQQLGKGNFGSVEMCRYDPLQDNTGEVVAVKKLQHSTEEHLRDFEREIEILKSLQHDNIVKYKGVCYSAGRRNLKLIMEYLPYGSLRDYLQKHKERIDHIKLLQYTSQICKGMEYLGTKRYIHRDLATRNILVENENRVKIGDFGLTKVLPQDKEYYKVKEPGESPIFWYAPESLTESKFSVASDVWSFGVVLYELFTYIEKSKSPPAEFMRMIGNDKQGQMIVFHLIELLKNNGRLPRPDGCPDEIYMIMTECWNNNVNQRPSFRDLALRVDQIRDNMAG
# assay-name: Biochemical potency on JAK2, TR-FRET LANCE Ultra kinase assay (compounds 1-92)
# stated-conditions: ATP at Km, read-out: JAK2 inhibitory activity (pIC50 class) (converted)

Here are 2 compounds together with their reported answers.
INSERT INTO measurements (compound, val) VALUES
  ('COc1cc(CNS(C)(=O)=O)ccc1-n1nc(NCCN(C)C)c2cnc(-c3cnn4cccnc34)cc21 [Example 56]', '≤ 5.01 nM'),
  ('COc1cc(NS(C)(=O)=O)ccc1-n1nc(NC(=O)CN2CCN(C)CC2)c2cnc(-c3cnn4cccnc34)cc21 [Example 81]', '≤ 5.01 nM');

Attention now shifts to the item below.
Recall and state the measured IC50 for COc1cc(NS(C)(=O)=O)ccc1-n1nc(N(C)CCN2CCOCC2)c2cnc(-c3cnn4cccnc34)cc21 [Example 40] .
5.01 to 50.1 nM

====

# system-name: JAK 3 (Homo sapiens (Human))
# assay-name: Biochemical potency on JAK3, TR-FRET LANCE Ultra kinase assay (compounds 1-92)
# stated-conditions: ATP at Km, read-out: JAK3 inhibitory activity (pIC50 class) (converted)
observed-property: IC50

INSERT INTO results (compound, val) VALUES
  ('CCCS(=O)(=O)Nc1ccc(-n2nc(NCCN3CCCCC3)c3cnc(Nc4ncc[nH]c4=O)cc32)c(OC)c1', '≤ 5.01 nM'),
  ('COc1cc(CN(C)S(C)(=O)=O)ccc1-n1nc(C)c2cnc(-c3cnn4cccnc34)cc21', '≤ 5.01 nM'),
  ('COc1cc(CNC(C)=O)ccc1-n1nc(C)c2cnc(-c3cnn4cccnc34)cc21', '> 50.1 nM'),
  ('COc1cc(NS(C)(=O)=O)ccc1-n1nc(NC(=O)C2CCN(C)CC2)c2cnc(-c3cnn4cccnc34)cc21', '≤ 5.01 nM'),
  ('COc1cc(NS(C)(=O)=O)ccc1-n1nc(NCCCN(C)C)c2cnc(-c3cnn4cccnc34)cc21', '≤ 5.01 nM'),
  ('CNS(=O)(=O)c1ccc(-n2nc(NCCCN(C)C)c3cnc(-c4cnn5cccnc45)cc32)c(OC)c1', '≤ 5.01 nM'),
  ('COc1cc(NS(=O)(=O)CC(F)F)ccc1-n1nc(C)c2cnc(-c3cnn4cccnc34)cc21', '5.01 to 50.1 nM'),
  ('COc1cc(NS(=O)(=O)c2cnn(C)c2)ccc1-n1nc(C)c2cnc(Nc3ncc[nH]c3=O)cc21', '≤ 5.01 nM'),
  ('CCCS(=O)(=O)Nc1ccc(-n2nc(NCCN3CCOCC3)c3cnc(Nc4ncc[nH]c4=O)cc32)c(OC(F)F)c1', '≤ 5.01 nM'),
  ('COc1cc(NC(=O)c2ccccc2)ccc1-n1nc(NCCN(C)C)c2cnc(-c3cnn4cccnc34)cc21', '5.01 to 50.1 nM');

Recall and state the measured IC50 for COc1cc(NS(C)(=O)=O)ccc1-n1nc(C(=O)NCCN(C)C)c2cnc(-c3cnn4cccnc34)cc21 .
≤ 5.01 nM

Output measured IC50 for this item: COc1cc(NS(=O)(=O)C2CC2)ccc1-n1nc(NCCN(C)C)c2cnc(-c3cnn4cccnc34)cc21
5.01 to 50.1 nM

Please report IC50 for the following compound: CNc1nn(-c2ccc(S(=O)(=O)NC)cc2OC)c2cc(-c3cnn4cccnc34)ncc12
≤ 5.01 nM

For COc1cc(CNS(=O)(=O)CC#N)ccc1-n1nc(C)c2cnc(-c3cnn4cccnc34)cc21 , write its IC50.
≤ 5.01 nM

Specify reported IC50 for the compound shown: CNS(=O)(=O)c1ccc(-n2nc(NCCN3CCOCC3)c3cnc(-c4cnn5cccnc45)cc32)c(OC)c1
≤ 5.01 nM

Tell me measured IC50 for CNc1nn(-c2ccc(CNS(C)(=O)=O)cc2OC)c2cc(-c3cnn4cccnc34)ncc12 please.
≤ 5.01 nM

// fetch IC50 given entry COc1cc(NS(C)(=O)=O)ccc1-n1nc(C)c2cnc(-c3cnn4cccnc34)cc21
≤ 5.01 nM

Provide IC50 value for the following compound: COc1cc(NS(=O)(=O)C2CCOC2)ccc1-n1nc(C)c2cnc(-c3cnn4cccnc34)cc21 (centres unmarked)
5.01 to 50.1 nM

Assign IC50 to the following record: CCCS(=O)(=O)Nc1ccc(-n2nc(NC)c3cnc(Nc4ncc[nH]c4=O)cc32)c(OC)c1
≤ 5.01 nM

Identify IC50 associated with the compound CNC(=O)NCc1ccc(-n2nc(C)c3cnc(-c4cnn5cccnc45)cc32)c(OC)c1
5.01 to 50.1 nM
